Field: growth inhibition. Provide a value for each of the molecules that follow.
PROTOCOL_DESCRIPTION: NCI Yeast Anticancer Drug Screen. Data for the rad14 strain (AID 159);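 also: 0% = growth of vehicle-treated control cultures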
CONDITION_INFO: S. cerevisiae rad14 strain growth inhibition; at 100.0 µM; stronger effect = higher value
Experimental: Growth inhibition of yeast strains with defined genetic alterations is measured as a screen for potential anti-cancer activity. Selected strains with alterations in DNA damage repair or cell cycle control were exposed to compounds and growth inhibition was measured relative to vehicle treated controls. The strain used in this assay is rad14
About 79,000 compounds went through this panel and 15% of them were active in at least one assay; those are over-represented in the sample as a whole.
Give bare numbers, in %.

// each listed molecule needs a value for growth inhibition
1. CCOP(=S)(S)OCC.[Pd]
2. COc1ccc(/C=C(/C)[N+](=O)[O-])cc1
3. CC[C@@]1(O)C(=O)OCc2c1cc1n(c2=O)Cc2cc3c(NC(=O)CN)cccc3nc2-1
4. Cc1c(N)nc([C@H](CC(N)=O)NC[C@H](N)C(N)=O)nc1C(=O)N[C@H](C(=O)N[C@H](C)[C@@H](O)[C@H](C)C(=O)N[C@H](C(=O)NCCc1nc(-c2nc(C(=O)NCCC[S+](C)C)cs2)cs1)[C@@H](C)O)C(OC1OC(CO)C(O)C(O)C1OC1OC(CO)C(O)C(OC(N)=O)C1O)c1cnc[nH]1 (stereo partly drawn)

75
99
-1
95

Quick request: growth inhibition for each listed item, please.
1. Nc1ccccc1C(=O)OCCc1ccccc1
2. COC(=O)C1c2cc3c(c(O)c2C(O)CC1(C)O)C(=O)c1c(O)cc2c(c1C3=O)OC1OC2(C)C(O)C(N(C)C)C1O (stereo not drawn)

97
92

# batch: return growth inhibition for each of the 2 molecules below
1. O=C1OC2C(O1)C1(Cl)C(Cl)=C(Cl)C2(Cl)C1(Cl)Cl (stereo not drawn)
2. COC1C(O)C(C)OC(OC2C(Oc3cccc4c(O)c5c(=O)oc6ccc(C)c7c(=O)oc(c34)c5c67)OC(C)C(O)C2O)C1O (stereo not drawn)

1. -1
2. 32

###

PROTOCOL_DESCRIPTION: NCI Yeast Anticancer Drug Screen. Data for the rad14 strain (AID 159);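 also: 0% = growth of vehicle-treated control cultures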
CONDITION_INFO: S. cerevisiae rad14 strain growth inhibition; at 11.0 µM
Compounds without any hit were thinned out: in the full panel of roughly 79,000, 15% have a hit. Calls of active or inactive are those of the source. No stated cut-off is given here; in the data, active means growth inhibition above about 70%; inactive means the rest.
Hello, when you answer, please use one of the following outcomes: active, inactive

COMPOUND	QUALITATIVE_LABEL
COc1cccc2c1C(=O)c1c(O)c3c(c(O)c1C2=O)C[C@@](O)(C(C)=O)C[C@@H]3OC1CC(N)C(OC2CC(O)C(O)C(C)O2)C(C)O1 (stereo partly drawn)	inactive
COC(=O)C(F)C(Br)C(=O)OC (stereo not drawn)	active
CC1=C[C@H]2O[C@@H]3C[C@H]4OC(=O)/C=C\C=C\C(C(C)O)OCC(O)C(C)CC(=O)OC[C@@]2(C[C@@H]1O)[C@]4(C)[C@@]31CO1 (stereo partly drawn)	active
CC[C@@]1(O)C(=O)OCc2c1cc1n(c2=O)Cc2cc3ccccc3nc2-1	active
C/C(CCl)=N/NC1=NC(c2ccccc2Cl)P(=O)(NCCCNP2(=O)SC(N/N=C(/C)CCl)=NC2c2ccccc2Cl)S1 (stereo not drawn)	inactive

Hey, what did the test say about "CNCC(O)c1ccc(O)c(O)c1.[Pt].c1ccc([PH+](c2ccccc2)c2ccccc2)cc1.c1ccc([PH+](c2ccccc2)c2ccccc2)cc1" ? inactive

Called result for "C=CC[N+]12CN3CN(CN(C3)C1)C2" inactive

Kindly provide the recorded test outcome for the following compound: "O=c1oc2ccccc2c(O)c1C(c1ccc2ccccc2c1)c1c(O)c2ccccc2oc1=O" inactive
